- Assay Target: Casp2 (Homo sapiens, UniProt P42575)
- Sequence (P42575 170-325 limits assumed): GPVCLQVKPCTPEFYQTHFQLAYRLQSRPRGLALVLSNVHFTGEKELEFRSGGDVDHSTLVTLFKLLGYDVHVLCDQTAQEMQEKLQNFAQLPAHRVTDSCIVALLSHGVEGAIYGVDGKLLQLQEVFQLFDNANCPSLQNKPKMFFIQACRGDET
- Sequence (P42575 348-452 limits assumed): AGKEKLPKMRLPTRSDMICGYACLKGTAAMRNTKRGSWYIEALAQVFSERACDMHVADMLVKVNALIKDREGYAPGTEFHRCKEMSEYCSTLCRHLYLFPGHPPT
Recorded Endpoint: pKi
One number for each entry, as −log10 of the molar value.

Entry Cc1ccc2c(c1)CCN(C(=O)[C@@H](NC(=O)[C@H](CCCC(=O)O)NC(=O)[C@@H]1Cc3ccccc3N1)C(C)C)[C@@H]2C(=O)N[C@H](C#N)CC(=O)O [Compound 1] under Casp2 (Homo sapiens, UniProt P42575) had pKi of 8.12

###

- Assay Target: Casp3 (Homo sapiens, UniProt P42574)
- Sequence (P42574 29-175 limits assumed): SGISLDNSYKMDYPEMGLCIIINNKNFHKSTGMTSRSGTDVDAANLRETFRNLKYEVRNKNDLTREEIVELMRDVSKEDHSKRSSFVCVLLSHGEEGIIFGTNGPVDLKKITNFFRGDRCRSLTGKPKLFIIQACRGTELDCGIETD
- Sequence (P42574 176-277 limits assumed): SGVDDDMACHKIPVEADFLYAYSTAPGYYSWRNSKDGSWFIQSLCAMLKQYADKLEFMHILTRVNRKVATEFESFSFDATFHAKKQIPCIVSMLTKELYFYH
Recorded Endpoint: pKi
Give bare numbers, as −log10 of the molar value.

pKi recorded for this compound, `Cc1ccc2c(c1)CCN(C(=O)[C@@H](NC(=O)[C@H](CCCC(=O)O)NC(=O)[C@@H]1Cc3ccccc3N1)C(C)C)[C@@H]2C(=O)N[C@H](C#N)CC(=O)O` , is 6.03

###

- Assay Target: Casp2-mediated cleavage of tau at D314 (Homo sapiens)
- Sequence (P42575 170-325 limits assumed): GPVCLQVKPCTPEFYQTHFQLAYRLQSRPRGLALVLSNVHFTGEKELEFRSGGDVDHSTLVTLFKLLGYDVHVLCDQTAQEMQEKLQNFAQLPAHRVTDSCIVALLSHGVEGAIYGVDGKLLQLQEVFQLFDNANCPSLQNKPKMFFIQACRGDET
- Sequence (P42575 348-452 limits assumed): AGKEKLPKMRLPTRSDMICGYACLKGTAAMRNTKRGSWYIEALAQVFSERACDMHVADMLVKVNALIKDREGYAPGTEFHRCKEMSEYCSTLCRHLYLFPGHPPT
Recorded Endpoint: pIC50
Numbers only, as −log10 of the molar value.

pIC50 recorded for this molecule, `Cc1ccc2c(c1)CCN(C(=O)[C@@H](NC(=O)[C@H](CCCC(=O)O)NC(=O)[C@@H]1Cc3ccccc3N1)C(C)C)[C@@H]2C(=O)N[C@H](C#N)CC(=O)O` , is 5.69

###

Recorded below: Ki, system Casp1 (Homo sapiens, UniProt P29466).
*1 amine or outer side, *2 acyl side, *3 side chain or, on linkers, in order; H or OH if unused. Where a SMILES comes first, the peptide text is derived from it. [ ]: non-standard residue; d: D form. X1 = Cc1ccc2c(c1)CCN([*:1])[C@@H]2C(=O)[*:2]

[[record]]
molecule = "Cc1ccc2c(c1)CCN(C(=O)[C@@H](NC(=O)[C@H](CCCC(=O)O)NC(=O)[C@@H]1Cc3ccccc3N1)C(C)C)[C@@H]2C(=O)N[C@H](C#N)CC(=O)O [Compound 1]"
assay_target = "Casp1 (Homo sapiens, UniProt P29466)"
recorded_endpoint = "Ki"
value_observed = "> 100000 nM"


Ki recorded for this molecule, CC(=O)N[C@H](C(=O)N[C@@H](CC(=O)O)C(=O)N[C@H](C(=O)N1CCc2cc(C)ccc2[C@H]1C(=O)N[C@H](C=O)CC(=O)O)C(C)C)C(C)C [Compound 2b] (Ac-VDV[X1]D-aldehyde) , is 2750 nM
